Source: the supplement of paper PMC9428881

# procedure text: background-corrected fluorescence of 3'-dye-labeled ssDNA relative to brightest sequence (3'-GCGCG) (fraction); higher = brighter dye fluorescence (less quenching)
# condition notes: dye: Cy3 (3' terminal)
measurement name: background-corrected fluorescence

* TTTTTTGCGCATGAGCATGCTTTTTTTTTTTTTTTATCTA | 0.482
* TTTTTTGATGCTGAGCAGCATTTTTTTTTTTTTTTCACTT | 0.498
* TTTTTTGCTGATGATCAGCATTTTTTTTTTTTTTTACCGT [TGCCA] | 0.624
* TTTTTTGATGATCATGATCATTTTTTTTTTTTTTTCCGCG [GCGCC] | 0.961
* TTTTTGCAGCATGCTGATGCTTTTTTTTTTTTTTTTTACA [ACATT] | 0.502
* TTTTTTGCGCATGATGCTCATTTTTTTTTTTTTTTATCAG [GACTA] | 0.56
* TTTTTTGATGATGCGCATGCTTTTTTTTTTTTTTTCCATA [ATACC] | 0.488
* TTTTTTGATCAGCATGATGCTTTTTTTTTTTTTTTCGTCA [ACTGC] | 0.547
* TTTTTTCATGCTGATGCTCATTTTTTTTTTTTTTTGACAG | 0.547
* TTTTTGCATCATCATGCGCATTTTTTTTTTTTTTTTGGAT [TAGGT] | 0.617
* TTTTTTCATGATGAGCAGCATTTTTTTTTTTTTTTGCCTT [TTCCG] | 0.489
* TTTTTTGCTGATCATGCTGATTTTTTTTTTTTTTTACGAC [CAGCA] | 0.486
* TTTTTTGCTGCTGATCATGCTTTTTTTTTTTTTTTAACGA [AGCAA] | 0.613
* TTTTTTGCTCAGCATCATGCTTTTTTTTTTTTTTTAGTGA | 0.645
* TTTTTTGATGATCATGCTGATTTTTTTTTTTTTTTCCGAC [CAGCC] | 0.464
* TTTTTGCAGCATGATCATGATTTTTTTTTTTTTTTTTCGC [CGCTT] | 0.503
* TTTTTTCATGATCAGCATGATTTTTTTTTTTTTTTGCGTC [CTGCG] | 0.481
* TTTTTTGAGCAGCATGCGCATTTTTTTTTTTTTTTCTTAT [TATTC] | 0.513
* TTTTTTGCGCATGATCATCATTTTTTTTTTTTTTTATCGG [GGCTA] | 0.609
* TTTTTTGAGCATCATGCTCATTTTTTTTTTTTTTTCTGAG [GAGTC] | 0.621
* TTTTTTGATGCTGATCATCATTTTTTTTTTTTTTTCACGG [GGCAC] | 0.584
